Data origin, for the record: the supplement of paper PMC9233669

- Test system: biotinyl-Phe-oxazolone
- Assay method text: self-aminoacylation, catalytic enhancement (BFO) (fold over background); higher = more active; k-Seq, kA / k0A0; sequences stand for … in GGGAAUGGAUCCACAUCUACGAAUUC…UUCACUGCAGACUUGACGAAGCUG
Variants at the floor of the assay were thinned out.
Short version: self-aminoacylation at least 20 is criterion met, less is criterion not met.

Input line: Threshold query (self-aminoacylation >= 20) on CUAAAUCAAACAAUCGGUCUG [Fam1A.1 aminoacylation ribozyme variant]
Output line: criterion not met

Input line: Threshold query (self-aminoacylation >= 20) on ACGUUUGCUAAUAGUGGCAAG [Fam3.1 aminoacylation ribozyme variant]
Output line: criterion not met

Input line: Threshold query (self-aminoacylation >= 20) on ACUACCCUGGACAUCGAGUGA [Fam2.1 aminoacylation ribozyme variant]
Output line: criterion met

Input line: Threshold query (self-aminoacylation >= 20) on CCACAUUUCAAGCUAUCGGUC [Fam1B.1 aminoacylation ribozyme variant]
Output line: criterion not met

Input line: Threshold query (self-aminoacylation >= 20) on CUAAUUCAAAUAAUCGGUCUG [Fam1A.1 aminoacylation ribozyme variant]
Output line: criterion not met

Input line: Threshold query (self-aminoacylation >= 20) on AUUCACCUAGGUAAUAGGGUG [Fam2.2 aminoacylation ribozyme variant]
Output line: criterion met

Input line: Threshold query (self-aminoacylation >= 20) on AUUACCCUGGUUGUCGAGUGA [Fam2.1 aminoacylation ribozyme variant]
Output line: criterion not met

Input line: Threshold query (self-aminoacylation >= 20) on AAGUUUGCUAAAAGUCGCGAG [Fam3.1 aminoacylation ribozyme variant]
Output line: criterion not met

Input line: Threshold query (self-aminoacylation >= 20) on UUUACCCUGGUCAUCGUGUGA [Fam2.1 aminoacylation ribozyme variant]
Output line: criterion not met

Input line: Threshold query (self-aminoacylation >= 20) on AUUCCGCUGGUCAUCGAGUGA [Fam2.1 aminoacylation ribozyme variant]
Output line: criterion met

Input line: Threshold query (self-aminoacylation >= 20) on AUUCACAUAGGUCAUCGGGUG [Fam2.2 aminoacylation ribozyme variant]
Output line: criterion met

Input line: Threshold query (self-aminoacylation >= 20) on CCUCACUUCAAUCAAUCGGUC [Fam1B.1 aminoacylation ribozyme variant]
Output line: criterion met

Input line: Threshold query (self-aminoacylation >= 20) on CCACACUUCAAGCGAUCGCUC [Fam1B.1 aminoacylation ribozyme variant]
Output line: criterion not met

Input line: Threshold query (self-aminoacylation >= 20) on AUUACCCUGGUCCUCUAGUGA [Fam2.1 aminoacylation ribozyme variant]
Output line: criterion met

Input line: Threshold query (self-aminoacylation >= 20) on CCACACUGCAAGCAAUCGAUC [Fam1B.1 aminoacylation ribozyme variant]
Output line: criterion not met

Input line: Threshold query (self-aminoacylation >= 20) on CUAAUUCAACCAAUCGGUCUG [Fam1A.1 aminoacylation ribozyme variant]
Output line: criterion not met

Input line: Threshold query (self-aminoacylation >= 20) on AUGACCCUGGUCAUCGAGAGA [Fam2.1 aminoacylation ribozyme variant]
Output line: criterion not met

Input line: Threshold query (self-aminoacylation >= 20) on AAGUAUGCUAAUAGUCGCAAA [Fam3.1 aminoacylation ribozyme variant]
Output line: criterion not met

Input line: Threshold query (self-aminoacylation >= 20) on AGUACCCUGGUCAACGAGUGA [Fam2.1 aminoacylation ribozyme variant]
Output line: criterion met

Input line: Threshold query (self-aminoacylation >= 20) on AUUCACCUUUGUCAUCGGGUG [Fam2.2 aminoacylation ribozyme variant]
Output line: criterion met

Input line: Threshold query (self-aminoacylation >= 20) on CCACACUUCAAGCAAUAGGUG [Fam1B.1 aminoacylation ribozyme variant]
Output line: criterion not met

Input line: Threshold query (self-aminoacylation >= 20) on AUUACCCUCGUCAUCGAGUGG [Fam2.1 aminoacylation ribozyme variant]
Output line: criterion not met

Input line: Threshold query (self-aminoacylation >= 20) on AUUACGCUGGCCAUCGAGUGA [Fam2.1 aminoacylation ribozyme variant]
Output line: criterion met

Input line: Threshold query (self-aminoacylation >= 20) on AUUCCCUUAGGUCAUCGGGUG [Fam2.2 aminoacylation ribozyme variant]
Output line: criterion met

Input line: Threshold query (self-aminoacylation >= 20) on AUUCACCUAGAUCAUGGGGUG [Fam2.2 aminoacylation ribozyme variant]
Output line: criterion met

Input line: Threshold query (self-aminoacylation >= 20) on CAGUUAGCUAAUAGUCGCAAG [Fam3.1 aminoacylation ribozyme variant]
Output line: criterion not met

Input line: Threshold query (self-aminoacylation >= 20) on AAGUUUGCUUAUAGUAGCAAG [Fam3.1 aminoacylation ribozyme variant]
Output line: criterion not met

Input line: Threshold query (self-aminoacylation >= 20) on GUUACCAUGGUCAUCGAGUGA [Fam2.1 aminoacylation ribozyme variant]
Output line: criterion met

Input line: Threshold query (self-aminoacylation >= 20) on CCACACUUCAAGCAAUCGCCC [Fam1B.1 aminoacylation ribozyme variant]
Output line: criterion not met

Input line: Threshold query (self-aminoacylation >= 20) on AUUCACCUAGCUCAUCGAGUG [Fam2.2 aminoacylation ribozyme variant]
Output line: criterion not met

----------
- System: biotinyl-Phe-oxazolone
- Assay method text: self-aminoacylation, catalytic enhancement (BFO) (fold over background); higher = more active; k-Seq, kA / k0A0; sequences stand for … in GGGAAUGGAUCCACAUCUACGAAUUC…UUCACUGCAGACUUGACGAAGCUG
This sample holds only a part of the variants without activity.
Short version: self-aminoacylation at least 6 is class 1, less is class 0.

Input line: Threshold query (self-aminoacylation >= 6) on AUUACCCUGGUUCUCGAGUGA [Fam2.1 aminoacylation ribozyme variant]
Output line: class 1

Input line: Threshold query (self-aminoacylation >= 6) on CUACUUCAAGCAAUCGGUCUU [Fam1A.1 aminoacylation ribozyme variant]
Output line: class 1

Input line: Threshold query (self-aminoacylation >= 6) on AUUCACCUAGGUCAACGGGUA [Fam2.2 aminoacylation ribozyme variant]
Output line: class 0

Input line: Threshold query (self-aminoacylation >= 6) on CUACAUCAAACAAUCGGUCCG [Fam1A.1 aminoacylation ribozyme variant]
Output line: class 0

Input line: Threshold query (self-aminoacylation >= 6) on CUUGCCCUGGUCAUCGAGUGA [Fam2.1 aminoacylation ribozyme variant]
Output line: class 1

Input line: Threshold query (self-aminoacylation >= 6) on CCACCCUUCGAGCAAUCGGUC [Fam1B.1 aminoacylation ribozyme variant]
Output line: class 0

Input line: Threshold query (self-aminoacylation >= 6) on ACGUUUGCUAAUAGUCGCAGG [Fam3.1 aminoacylation ribozyme variant]
Output line: class 0

Input line: Threshold query (self-aminoacylation >= 6) on AUUACCCGGGUCAUUGAGUGA [Fam2.1 aminoacylation ribozyme variant]
Output line: class 1

Input line: Threshold query (self-aminoacylation >= 6) on CGACUUCAAACCAUCGGUCUG [Fam1A.1 aminoacylation ribozyme variant]
Output line: class 0

Input line: Threshold query (self-aminoacylation >= 6) on AUUACCCCGGUCAUCGAGUGG [Fam2.1 aminoacylation ribozyme variant]
Output line: class 0

Input line: Threshold query (self-aminoacylation >= 6) on CCACACUUCAAGCAAGCAGUC [Fam1B.1 aminoacylation ribozyme variant]
Output line: class 0

Input line: Threshold query (self-aminoacylation >= 6) on AUUCACCUCGGUCAACGGGUG [Fam2.2 aminoacylation ribozyme variant]
Output line: class 1

Input line: Threshold query (self-aminoacylation >= 6) on AAGUUUGCUAAUAGUCACAAU [Fam3.1 aminoacylation ribozyme variant]
Output line: class 0

Input line: Threshold query (self-aminoacylation >= 6) on AUUCGCCCAGGUCAUCGGGUG [Fam2.2 aminoacylation ribozyme variant]
Output line: class 1

Input line: Threshold query (self-aminoacylation >= 6) on UCAGACUUCAAGCAAUCGGUC [Fam1B.1 aminoacylation ribozyme variant]
Output line: class 1

Input line: Threshold query (self-aminoacylation >= 6) on AUUCACCUAUAUCAUCGGGUG [Fam2.2 aminoacylation ribozyme variant]
Output line: class 1

Input line: Threshold query (self-aminoacylation >= 6) on CUACUUCAAACAAUCGAUCUG [Fam1A.1 aminoacylation ribozyme variant]
Output line: class 0

Input line: Threshold query (self-aminoacylation >= 6) on AUUCACCUAGGUCAUCCGGCG [Fam2.2 aminoacylation ribozyme variant]
Output line: class 1

Input line: Threshold query (self-aminoacylation >= 6) on AUUACACUGGUCAUCGAGUGC [Fam2.1 aminoacylation ribozyme variant]
Output line: class 0

Input line: Threshold query (self-aminoacylation >= 6) on AUUCACCUAGGCCUUCGGGUG [Fam2.2 aminoacylation ribozyme variant]
Output line: class 1

Input line: Threshold query (self-aminoacylation >= 6) on CCACACUUCAAGCACUCGGUG [Fam1B.1 aminoacylation ribozyme variant]
Output line: class 1

Input line: Threshold query (self-aminoacylation >= 6) on CUACUUCCACCAAUCGGUCUG [Fam1A.1 aminoacylation ribozyme variant]
Output line: class 0

Input line: Threshold query (self-aminoacylation >= 6) on CUACUUCAAACAACCUGUCUG [Fam1A.1 aminoacylation ribozyme variant]
Output line: class 0

Input line: Threshold query (self-aminoacylation >= 6) on AAGUACGCUAAUAGUCGCAAG [Fam3.1 aminoacylation ribozyme variant]
Output line: class 1
